measured-attribute: melting point

molecule	melting point
O=C(O)C1=Cc2cc(Cl)ccc2N[C@@H]1C(F)(F)F [Example 13]	173 to 176 °C
O=C(O)C1=Cc2cc(Cl)ccc2O[C@@H]1C(F)(F)F [Example 2]	126.7 to 128.9 °C
Cc1cc2c(cc1Cl)C=C(C(=O)O)C(C(F)(F)F)S2 (stereo not shown) [Example 23]	240.5 to 241.7 °C
O=C(O)C1=Cc2cc(Cl)cc(Cl)c2NC1C(F)(F)F (stereo not shown) [Example 14]	223.4 to 225.7 °C
O=C(O)C1=Cc2cc(Cl)ccc2NC1C(F)(F)F (stereo not shown) [Example 12]	187.8 to 188.8 °C

For the molecule O=C(O)C1=Cc2c(ccc(Cl)c2Cl)OC1C(F)(F)F (stereo not shown) [Example 17] , give its reported melting point.
211.5 to 213.5 °C

Dear colleague, please send me the reported melting point for CC(C)(C)c1ccc2c(c1)OC(C(F)(F)F)C(C(=O)O)=C2 (stereo not shown) [Example 15] when you can.
165.6 to 166.8 °C

* * *

measured-attribute: melting point

See these solved cases before continuing.
compound	measured-attribute	meas-value
O=Cc1ccc2c(c1)C=C(C(=O)O)C(C(F)(F)F)O2 (stereo not shown)	melting point	211.3 to 215.7 °C
O=C(O)C1=Cc2cc(Cl)c(Cl)c(Cl)c2OC1C(F)(F)F (stereo not shown)	melting point	222 to 225.3 °C
O=C(O)C1=Cc2cc(I)ccc2NC1C(F)(F)F (stereo not shown)	melting point	188 to 192 °C
O=C(O)C1=Cc2cc(Cl)c(Cl)cc2OC1C(F)(F)F (stereo not shown)	melting point	196.1 to 198.3 °C
Cc1c(Cl)cc2c(c1Cl)OC(C(F)(F)F)C(C(=O)O)=C2 (stereo not shown)	melting point	229.9 to 230.9 °C
O=C(O)C1=Cc2cc(C(F)F)ccc2OC1C(F)(F)F (stereo not shown)	melting point	134.7 to 136.2 °C
CSc1ccc2c(c1)C=C(C(=O)O)C(C(F)(F)F)O2 (stereo not shown)	melting point	166.3 to 167.9 °C
O=C(O)C1=Cc2c(cc(Cl)c(Cl)c2Cl)OC1C(F)(F)F (stereo not shown)	melting point	236.2 to 239.3 °C
O=C(O)C1=Cc2cc(C(F)(F)F)ccc2OC1C(F)(F)F (stereo not shown)	melting point	143.5 to 145.2 °C

# next compound below
Supply reported melting point belonging to this compound: O=C(O)C1=Cc2cc(Br)ccc2NC1C(F)(F)F (stereo not shown)
185 to 186 °C

* * *

tested-target: COX-2 (UniProt P35354)
assay-protocol: Fast assay for COX-2 activity (PGE2 ELISA)
measurement-conditions: read-out: COX-2* IC50, recombinant COX-2, PGE2 ELISA, 10 min pre-incubation at 25° C.
Below: a set of entries, each annotated with reported IC50.
Please answer using a numeric value trailed by its unit.

Recorded IC50, per entry:
compound	meas-value
O=C(O)C1=Cc2cc(I)ccc2NC1C(F)(F)F (centres unmarked)	800 nM
CC(C)(C)c1ccc2c(c1)OC(C(F)(F)F)C(C(=O)O)=C2 (centres unmarked)	3600 nM
O=C(O)C1=Cc2cc(Cl)ccc2OC1C(F)(F)F (centres unmarked)	700 nM
O=C(O)C1=Cc2cc(Cl)ccc2N[C@@H]1C(F)(F)F	200 nM
O=C(O)C1=Cc2cc(Br)ccc2NC1C(F)(F)F (centres unmarked)	400 nM
O=C(O)C1=Cc2cc(Cl)ccc2NC1C(F)(F)F (centres unmarked)	600 nM
Cc1c(Cl)cc2c(c1Cl)OC(C(F)(F)F)C(C(=O)O)=C2 (centres unmarked)	900 nM

Could you now look at the following compound, please?
Please respond with reported IC50 (system COX-2 (UniProt P35354)) for O=C(O)C1=Cc2cc(Cl)cc(Cl)c2NC1C(F)(F)F (centres unmarked) .
200 nM
